Tested on: Aβ-40
Assay: Aβ-40 level in conditioned media of 2B7 cells (MSD 3-PLEX ELISA)
Type: cell-based
Conditions: Homo sapiens, 5 hours at 37° C., 1% DMSO, read-out: Aβ 40 IC50
Could you please report measured IC50 for the items listed next?

# example entries with known answers
molecule | target system | observed
CC(C)[C@@H](OC(=O)N1CCC1)[C@H]1C[C@@H](C)[C@H]2[C@H](O1)[C@H](O)[C@@]1(C)[C@@H]3CC[C@H]4C(C)(C)[C@@H](OC(=O)N(C)C5CN(C)C5)CC[C@@]45C[C@@]35CC[C@]21C [Compound I-11] | Aβ-40 | > 5 µM
COCCN1CCN(C(=O)O[C@H]2CC[C@]34C[C@]35CC[C@]3(C)[C@@H]6[C@H](O[C@@H]([C@H](OC(=O)N7CCC7)C(C)C)C[C@H]6C)[C@H](O)[C@@]3(C)[C@@H]5CC[C@H]4C2(C)C)CC1 [Compound I-12] | Aβ-40 | > 5 µM

From here, focus on the item given below.
Tell me measured IC50 for CC(C)[C@@H](OC(=O)N1CCC1)[C@H]1C[C@@H](C)[C@H]2[C@H](O1)[C@H](O)[C@@]1(C)[C@@H]3CC[C@H]4C(C)(C)[C@@H](OC(=O)N5CC[C@@H](C(=O)O)C5)CC[C@@]45C[C@@]35CC[C@]21C [Compound I-10] please.
> 5 µM
